procedure.details: Pharmacokinetics in mice
Type: in vivo
condition.set: mouse, plasma, iv, 5 mg/kg
measure.name: clearance (mL/min/kg)
Give bare numbers, in mL/min/kg.

# input Fill in: clearance of C=CC(=O)Nc1cccc(-c2nc(Nc3cccc(N4CCOCC4)c3)nc3[nH]ncc23)c1 [Compound 3] is ___
# output 67

---

procedure.details: Pharmacokinetics in mice
Type: in vivo
condition.set: mouse, plasma, iv, 5 mg/kg, i.v., 5 mg/kg, read-out: AUC0-4
measure.name: AUC(0-t) (ng·h/mL)
Numbers only, in ng·h/mL.

# input Fill in: AUC(0-t) of `C=CC(=O)Nc1cccc(-c2nc(Nc3cccc(N4CCOCC4)c3)nc3[nH]ncc23)c1` is ___
# output 1180
